# test_target: F508del/F508del CFTR (Homo sapiens, UniProt P13569, DEL508-508)
# Construct: cells isolated from CF patients with the homozygous mutation; endogenous in cells
# Sequence (P13569 with tags, fused parts or gaps DEL508-508): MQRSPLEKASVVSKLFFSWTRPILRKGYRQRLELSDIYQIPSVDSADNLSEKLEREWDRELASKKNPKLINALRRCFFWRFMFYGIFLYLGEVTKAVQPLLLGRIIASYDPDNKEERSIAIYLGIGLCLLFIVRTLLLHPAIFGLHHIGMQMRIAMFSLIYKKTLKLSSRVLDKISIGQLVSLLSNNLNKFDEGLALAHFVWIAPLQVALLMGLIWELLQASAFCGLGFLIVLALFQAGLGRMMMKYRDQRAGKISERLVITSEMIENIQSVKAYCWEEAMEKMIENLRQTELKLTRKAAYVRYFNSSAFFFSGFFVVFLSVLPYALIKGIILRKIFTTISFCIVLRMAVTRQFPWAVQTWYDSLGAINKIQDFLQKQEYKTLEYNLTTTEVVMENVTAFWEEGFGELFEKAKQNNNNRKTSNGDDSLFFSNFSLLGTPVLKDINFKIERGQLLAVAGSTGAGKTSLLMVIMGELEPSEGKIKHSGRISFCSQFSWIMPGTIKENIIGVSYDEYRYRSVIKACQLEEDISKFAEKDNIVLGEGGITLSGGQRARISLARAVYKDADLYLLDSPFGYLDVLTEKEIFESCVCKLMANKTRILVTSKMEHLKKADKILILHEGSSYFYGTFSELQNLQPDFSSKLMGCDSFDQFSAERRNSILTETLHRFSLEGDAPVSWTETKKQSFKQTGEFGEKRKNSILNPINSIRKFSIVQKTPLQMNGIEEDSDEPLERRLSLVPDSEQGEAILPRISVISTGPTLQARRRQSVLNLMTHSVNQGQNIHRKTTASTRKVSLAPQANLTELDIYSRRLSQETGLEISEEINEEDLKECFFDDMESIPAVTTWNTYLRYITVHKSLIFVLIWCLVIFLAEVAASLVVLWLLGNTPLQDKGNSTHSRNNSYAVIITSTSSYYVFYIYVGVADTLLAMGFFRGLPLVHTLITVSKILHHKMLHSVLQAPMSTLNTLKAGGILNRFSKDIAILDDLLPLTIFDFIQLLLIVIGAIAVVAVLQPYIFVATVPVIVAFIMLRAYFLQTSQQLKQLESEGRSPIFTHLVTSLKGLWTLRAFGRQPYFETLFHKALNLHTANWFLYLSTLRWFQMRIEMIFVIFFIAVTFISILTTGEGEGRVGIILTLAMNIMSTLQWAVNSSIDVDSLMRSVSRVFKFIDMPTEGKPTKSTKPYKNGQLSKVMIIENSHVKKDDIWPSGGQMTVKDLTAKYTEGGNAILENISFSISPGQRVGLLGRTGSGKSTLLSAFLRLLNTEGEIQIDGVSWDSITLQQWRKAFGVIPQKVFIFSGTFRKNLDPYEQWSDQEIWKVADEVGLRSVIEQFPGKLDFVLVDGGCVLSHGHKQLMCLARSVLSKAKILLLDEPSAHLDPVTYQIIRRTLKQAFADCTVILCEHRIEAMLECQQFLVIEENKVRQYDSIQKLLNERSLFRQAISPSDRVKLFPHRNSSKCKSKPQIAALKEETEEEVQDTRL
# procedure_details: Trans-Epithelial Current Clamp (TECC) assay using primary human bronchial epithelial cells
# particulars: primary hBE cells homozygous F508del/F508del; test C2 corrector with co-corrector and potentiator, 18-24 hours at 37° C.; equivalent CFTR current (IEQ)/AUC
assay_metric: EC50 (nM)

compound	assay_metric	observed_value
COc1nccc([C@@H]2C[C@]2(C(=O)NS(=O)(=O)c2cccc3nc(C)ccc23)c2cc(C)ccc2OC)n1 (racemic) [Example 95]	EC50	12.6
COc1ccc(C)cc1[C@]1(C(=O)NS(=O)(=O)c2cccc3nc(C)ccc23)C[C@@H]1c1ccc(C)nc1	EC50	49
COc1ccc(C)cc1[C@@]1(C(=O)NS(=O)(=O)c2cccc3nc(C)ccc23)C[C@H]1c1ccc(C)cc1 (single isomer, unassigned) [Example 6]	EC50	5.3
COc1ccc([C@@H]2C[C@]2(C(=O)NS(=O)(=O)c2cccc3nc(C)ccc23)c2cc(C)ccc2OC)cn1	EC50	48.8

P = COc1cncc([C@@H]2C[C@]2(C(=O)NS(=O)(=O)c2cccc3nc(C)ccc23)c2cc(C)ccc2OC)n1 (single isomer, unassigned)
Q = COc1ccc(C)cc1[C@]1(C(=O)NS(=O)(=O)c2cccc3nc(C)ccc23)C[C@@H]1c1cnc(C)cn1 (single isomer, unassigned) [Example 92]
R = COc1ccc(C)cc1[C@@]1(C(=O)NS(=O)(=O)c2cccc3nc(C)ccc23)C[C@H]1c1cccc(F)c1 (single isomer, unassigned) [Example 21]
S = COc1cncc([C@H]2C[C@@]2(C(=O)NS(=O)(=O)c2cccc3nc(C)ccc23)c2cc(C)ccc2OC)n1 (single isomer, unassigned)
T = COc1ccc([C@@H]2C[C@]2(C(=O)NS(=O)(=O)c2cccc3nc(C)ccc23)c2cc(C)ccc2OC)cc1 (single isomer, unassigned) [Example 16]
Prompt line: List the 5 entries from lowest EC50 to highest EC50 value. Put the labels in the requested order and write them down.
Response line: R, T, S, Q, P

I = COc1ccc([C@@H]2C[C@]2(C(=O)NS(=O)(=O)c2cccc3nc(C)ccc23)c2cc(C)ccc2OC)c(OC)n1 (racemic) [Example 79]
II = COc1ccc(C)cc1[C@]1(C(=O)NS(=O)(=O)c2cccc3nc(C)ccc23)C[C@@H]1c1ccccc1C(F)(F)F (single isomer, unassigned) [Example 30]
III = CCOc1ncccc1[C@H]1C[C@@]1(C(=O)NS(=O)(=O)c1cccc2nc(C)ccc12)c1cc(C)ccc1OC (single isomer, unassigned)
Prompt line: Order the records so the highest EC50 appears first and the lowest last. Put the labels in the requested order and write them down.
Response line: II, I, III
(II: 46.6 nM, I: 21.6 nM, III: 11.3 nM)
